# Test system: HEC1A cells (wildtype FGFR2)
# PROCEDURE DETAILS: SRB cell viability assay, HEC1A
# Assay type: cell-based
# CONDITION PARAMETERS: Homo sapiens, HEC-1-A, read-out: PD173074 IC50, cell viability, SRB assay 72 hours after addition, full growth medium
pIC50: −log10 of the molar value.
PROPERTY MEASURED: pIC50

Quick note, pIC50 for CCN(CC)CCCCNc1ncc2cc(-c3cc(OC)cc(OC)c3)c(NC(=O)NC(C)(C)C)nc2n1 [PD173074] landed at < 5.52

----------
# Tested on: RL952 cells (wildtype FGFR2)
# PROCEDURE DETAILS: SRB cell viability assay, RL952
# Format: cell-based
# CONDITION PARAMETERS: Homo sapiens, RL95-2, read-out: PD173074 IC50, cell viability; RL952, SRB assay 72 hours after addition, full growth medium
pIC50: −log10 of the molar value.
PROPERTY MEASURED: pIC50

Quick note, pIC50 for CCN(CC)CCCCNc1ncc2cc(-c3cc(OC)cc(OC)c3)c(NC(=O)NC(C)(C)C)nc2n1 [PD173074] landed at < 6.00

Just for reference, patent US10191057B2 is where these values come from.
